Data provenance: ChEMBL document CHEMBL1275492

# Test system: Providencia stuartii
# assay.comment: Antibacterial activity against Providencia stuartii obtained from complicated skin and skin structure infections by agar dilution method
# Format: functional
Label Satisfied when MIC90 is strictly below 20 µg/mL; at or above that, label Not satisfied.

Just wondering, is MIC90 of NCC[C@H](O)C(=O)N[C@@H]1C[C@H](N)[C@@H](O[C@H]2O[C@H](CN)[C@@H](O)[C@H](O)[C@H]2O)[C@H](O)[C@H]1O[C@H]1O[C@H](CO)[C@@H](O)[C@H](N)[C@H]1O [AMIKACIN] below 20 µg/mL?
Satisfied

Just wondering, is MIC90 of CC(C)(O/N=C(\C(=O)N[C@@H]1C(=O)N2C(C(=O)[O-])=C(C[n+]3ccccc3)CS[C@H]12)c1csc(N)n1)C(=O)O [CEFTAZIDIME] below 20 µg/mL?
Satisfied

Just wondering, is MIC90 of CO/N=C(\C(=O)N[C@@H]1C(=O)N2C(C(=O)O)=C(CSc3nc(=O)c(O)nn3C)CS[C@H]12)c1csc(N)n1 [CEFTRIAXONE] below 20 µg/mL?
Not satisfied

Just wondering, is MIC90 of CO/N=C(\C(=O)N[C@@H]1C(=O)N2C(C(=O)[O-])=C(C[N+]3(C)CCCC3)CS[C@H]12)c1csc(N)n1 below 20 µg/mL?
Satisfied

Just wondering, is MIC90 of Nc1nc(/C(=N/O)C(=O)N[C@@H]2C(=O)N3C(C(=O)O)=C(/C=C4\CCN([C@@H]5CCNC5)C4=O)CS[C@H]23)ns1 [CEFTOBIPROLE] below 20 µg/mL?
Not satisfied

Just wondering, is MIC90 of C[C@@H](O)[C@H]1C(=O)N2C(C(=O)O)=C(S[C@@H]3CN[C@H](C(=O)N(C)C)C3)[C@H](C)[C@H]12 [MEROPENEM] below 20 µg/mL?
Satisfied

Just wondering, is MIC90 of C[C@H]1COc2c(N3CCN(C)CC3)c(F)cc3c(=O)c(C(=O)O)cn1c23.C[C@H]1COc2c(N3CCN(C)CC3)c(F)cc3c(=O)c(C(=O)O)cn1c23.O [LEVOFLOXACIN] below 20 µg/mL?
Satisfied

* * *

Exercise: for every item that follows, state its recorded MIC90.
# System: Aerococcus viridans
# assay.comment: Antibacterial activity against Aerococcus viridans obtained from complicated skin and skin structure infections by agar dilution method
# Assay type: functional
Give the value in µg/mL but do not write µg/mL after it.

Dear colleague, please send me the reported MIC90 for CC(=O)NC[C@H]1CN(c2ccc(N3CCOCC3)c(F)c2)C(=O)O1 when you can.
2

Dear colleague, please send me the reported MIC90 for CC(C)(O/N=C(\C(=O)N[C@@H]1C(=O)N2C(C(=O)[O-])=C(C[n+]3ccccc3)CS[C@H]12)c1csc(N)n1)C(=O)O when you can.
64

Dear colleague, please send me the reported MIC90 for Nc1nc(/C(=N/O)C(=O)N[C@@H]2C(=O)N3C(C(=O)O)=C(/C=C4\CCN([C@@H]5CCNC5)C4=O)CS[C@H]23)ns1 when you can.
0.25

Dear colleague, please send me the reported MIC90 for CN[C@H](CC(C)C)C(=O)N[C@H]1C(=O)N[C@@H](CC(N)=O)C(=O)N[C@H]2C(=O)N[C@H]3C(=O)N[C@H](C(=O)N[C@H](C(=O)O)c4cc(O)cc(O)c4-c4cc3ccc4O)[C@H](O)c3ccc(c(Cl)c3)Oc3cc2cc(c3O[C@@H]2O[C@H](CO)[C@@H](O)[C@H](O)[C@H]2O[C@H]2C[C@](C)(N)[C@H](O)[C@H](C)O2)Oc2ccc(cc2Cl)[C@H]1O when you can.
1

Dear colleague, please send me the reported MIC90 for C[C@H]1COc2c(N3CCN(C)CC3)c(F)cc3c(=O)c(C(=O)O)cn1c23.C[C@H]1COc2c(N3CCN(C)CC3)c(F)cc3c(=O)c(C(=O)O)cn1c23.O when you can.
4

Dear colleague, please send me the reported MIC90 for CC[C@H]1OC(=O)[C@H](C)[C@@H](O[C@H]2C[C@@](C)(OC)[C@@H](O)[C@H](C)O2)[C@H](C)[C@@H](O[C@@H]2O[C@H](C)C[C@H](N(C)C)[C@H]2O)[C@](C)(O)C[C@@H](C)C(=O)[C@H](C)[C@@H](O)[C@]1(C)O when you can.
8

Dear colleague, please send me the reported MIC90 for CCC[C@@H]1C[C@@H](C(=O)N[C@@H]([C@H]2O[C@H](SC)[C@H](O)[C@@H](O)[C@H]2O)[C@H](C)Cl)N(C)C1 when you can.
4

Dear colleague, please send me the reported MIC90 for CC1(C)S[C@@H]2[C@H](NC(=O)Cc3ccccc3)C(=O)N2[C@H]1C(=O)O when you can.
1

* * *

# System: Staphylococcus hominis
# assay.comment: Antibacterial activity against coagulase-negative Staphylococcus hominis obtained from complicated skin and skin structure infections by agar dilution method
# Type: functional
parameter.measured: MIC90 (µg/mL)
Give the value in µg/mL but do not write µg/mL after it.

Identify measured MIC90 obtained with Staphylococcus hominis for CN[C@H](CC(C)C)C(=O)N[C@H]1C(=O)N[C@@H](CC(N)=O)C(=O)N[C@H]2C(=O)N[C@H]3C(=O)N[C@H](C(=O)N[C@H](C(=O)O)c4cc(O)cc(O)c4-c4cc3ccc4O)[C@H](O)c3ccc(c(Cl)c3)Oc3cc2cc(c3O[C@@H]2O[C@H](CO)[C@@H](O)[C@H](O)[C@H]2O[C@H]2C[C@](C)(N)[C@H](O)[C@H](C)O2)Oc2ccc(cc2Cl)[C@H]1O [VANCOMYCIN] .
2

Identify measured MIC90 obtained with Staphylococcus hominis for C[C@H]1COc2c(N3CCN(C)CC3)c(F)cc3c(=O)c(C(=O)O)cn1c23.C[C@H]1COc2c(N3CCN(C)CC3)c(F)cc3c(=O)c(C(=O)O)cn1c23.O [LEVOFLOXACIN] .
8

* * *

# Test system: Klebsiella oxytoca
# assay.comment: Antibacterial activity against Klebsiella oxytoca obtained from complicated skin and skin structure infections by agar dilution method
# Type: functional
Label condition met when MIC90 is strictly below 8 µg/mL; at or above that, label condition not met.

Just wondering, is MIC90 of CO/N=C(\C(=O)N[C@@H]1C(=O)N2C(C(=O)O)=C(CSc3nc(=O)c(O)nn3C)CS[C@H]12)c1csc(N)n1 [CEFTRIAXONE] below 8 µg/mL?
condition not met

Just wondering, is MIC90 of C[C@@H](O)[C@H]1C(=O)N2C(C(=O)O)=C(S[C@@H]3CN[C@H](C(=O)N(C)C)C3)[C@H](C)[C@H]12 [MEROPENEM] below 8 µg/mL?
condition met

Just wondering, is MIC90 of CO/N=C(\C(=O)N[C@@H]1C(=O)N2C(C(=O)[O-])=C(C[N+]3(C)CCCC3)CS[C@H]12)c1csc(N)n1 below 8 µg/mL?
condition met

Just wondering, is MIC90 of Nc1nc(/C(=N/O)C(=O)N[C@@H]2C(=O)N3C(C(=O)O)=C(/C=C4\CCN([C@@H]5CCNC5)C4=O)CS[C@H]23)ns1 [CEFTOBIPROLE] below 8 µg/mL?
condition not met

Just wondering, is MIC90 of CC(C)(O/N=C(\C(=O)N[C@@H]1C(=O)N2C(C(=O)[O-])=C(C[n+]3ccccc3)CS[C@H]12)c1csc(N)n1)C(=O)O [CEFTAZIDIME] below 8 µg/mL?
condition not met

* * *

# Tested on: Bacillus
# assay.comment: Antibacterial activity against Bacillus spp. obtained from complicated skin and skin structure infections by agar dilution method
# Type: functional
parameter.measured: MIC50 (µg/mL)
Give the value in µg/mL but do not write µg/mL after it.

Identify measured MIC50 obtained with Bacillus for C[C@H]1COc2c(N3CCN(C)CC3)c(F)cc3c(=O)c(C(=O)O)cn1c23.C[C@H]1COc2c(N3CCN(C)CC3)c(F)cc3c(=O)c(C(=O)O)cn1c23.O [LEVOFLOXACIN] .
0.5

Identify measured MIC50 obtained with Bacillus for Nc1nc(/C(=N/O)C(=O)N[C@@H]2C(=O)N3C(C(=O)O)=C(/C=C4\CCN([C@@H]5CCNC5)C4=O)CS[C@H]23)ns1 [CEFTOBIPROLE] .
0.12

Identify measured MIC50 obtained with Bacillus for CC(C)(O/N=C(\C(=O)N[C@@H]1C(=O)N2C(C(=O)[O-])=C(C[n+]3ccccc3)CS[C@H]12)c1csc(N)n1)C(=O)O [CEFTAZIDIME] .
1

Identify measured MIC50 obtained with Bacillus for CC[C@H]1OC(=O)[C@H](C)[C@@H](O[C@H]2C[C@@](C)(OC)[C@@H](O)[C@H](C)O2)[C@H](C)[C@@H](O[C@@H]2O[C@H](C)C[C@H](N(C)C)[C@H]2O)[C@](C)(O)C[C@@H](C)C(=O)[C@H](C)[C@@H](O)[C@]1(C)O [ERYTHROMYCIN] .
0.03
